This collection of values is drawn from ChEMBL document CHEMBL5584254.

System: Nav1.8 (SCN10A)
Experiment: Inhibition of Nav1.8 (unknown origin) at 10 uM under half […] state by whole-cell patch clamp analysis relative to control
Settings: human
Examples of compounds with documented inhibition at 10 µM follow.
Give the quantity in %, number only.

>>> df
                                   compound  observed
0  O=S(=O)(NCC12CC3CC(CC(C3)C1)C2)c1cccc(S(=O)(=O)c2ccc(Cl)cc2)c1      63.8

API: the following record is the query input.
Kindly note the recorded inhibition at 10 µM for Cc1ccccc1C1CC(=O)C2=C(C1)NC(=O)C(CC(=O)Nc1cccc(Cl)c1C)C2 (configuration not stated) , which is 11.1
